system: PPARa:RXRa (NR concentration 270 nM, RXRa partner concentration 90 nM); experiment: PBM binding z-score (relative to random genomic background probes); higher = stronger binding; sequences stand for … in GC…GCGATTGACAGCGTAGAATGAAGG
MEASURE_NAME: PBM binding z-score
Enter the number alone.

Request: Looking for the measured PBM binding z-score of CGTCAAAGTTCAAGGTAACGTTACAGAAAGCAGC , can you help?
Result: 4.78

Request: Looking for the measured PBM binding z-score of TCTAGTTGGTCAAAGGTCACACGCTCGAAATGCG , can you help?
Result: 6.6

Request: Looking for the measured PBM binding z-score of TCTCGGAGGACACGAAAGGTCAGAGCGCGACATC , can you help?
Result: 3.64

Request: Looking for the measured PBM binding z-score of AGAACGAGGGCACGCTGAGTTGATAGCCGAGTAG , can you help?
Result: 2.17

Request: Looking for the measured PBM binding z-score of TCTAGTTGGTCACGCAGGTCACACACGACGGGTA , can you help?
Result: 2.87
